- System: Pseudomonas aeruginosa
- Protocol Description: Antibacterial activity against Pseudomonas aeruginosa 09-34 after 18 to 24 hrs by twofold serial dilution method
- Assay type: functional
Each record here notes measured MIC.
Test Readout: MIC

INSERT INTO measurements (compound, endpoint_result) VALUES
  ('CCO/N=C(/N)C1CN(c2nc3c(cc2F)c(=O)c(C(=O)O)cn3C2CC2)C/C1=N\OC (stereo not drawn)', '> 128 µg/mL'),
  ('CCn1cc(C(=O)O)c(=O)c2cc(F)c(N3C/C(=N\OC)C(/C(N)=N\OC)C3)c(F)c21 (stereo not drawn)', '> 128 µg/mL'),
  ('CO/N=C1\CN(c2c(F)cc3c(=O)c(C(=O)O)cn4c3c2OC[C@@H]4C)CC1/C(N)=N\OC (stereo partly drawn)', '> 128 µg/mL');

---

Each record here notes measured MIC.
- Tested on: Enterococcus faecium
- Protocol Description: Antibacterial activity against Enterococcus faecium 08-2 after 18 to 24 hrs by twofold serial dilution method
- Format: functional
Test Readout: MIC

INSERT INTO assay_data (compound, endpoint_result) VALUES
  ('CO/N=C1\CN(c2c(F)cc3c(=O)c(C(=O)O)cn4c3c2OC[C@@H]4C)CC1/C(N)=N\O (stereo partly specified)', '> 128 mg/L'),
  ('CCO/N=C1\CN(c2c(F)cc3c(=O)c(C(=O)O)cn(C4CC4)c3c2OC(F)F)CC1/C(N)=N\OC (stereo unspecified)', '64 mg/L'),
  ('CCO/N=C1\CN(c2c(F)cc3c(=O)c(C(=O)O)cn(CC)c3c2F)CC1/C(N)=N\O (stereo unspecified)', '> 128 mg/L'),
  ('CO/N=C1\CN(c2c(F)cc3c(=O)c(C(=O)O)cn(C4CC4)c3c2OC)CC1/C(N)=N\O (stereo unspecified)', '> 128 mg/L'),
  ('CCO/N=C1\CN(c2c(F)cc3c(=O)c(C(=O)O)cn(CCF)c3c2F)CC1/C(N)=N\OC (stereo unspecified)', '> 128 mg/L'),
  ('CO/N=C1\CN(c2nc3c(cc2F)c(=O)c(C(=O)O)cn3C2CC2)CC1CN (stereo unspecified)', '16 mg/L'),
  ('CCO/N=C1\CN(c2c(F)cc3c(=O)c(C(=O)O)cn(C4CC4)c3c2OC)CC1/C(N)=N\OC (stereo unspecified)', '> 128 mg/L'),
  ('CCO/N=C(/N)C1CN(c2c(F)cc3c(=O)c(C(=O)O)cn(C4CC4)c3c2OC)C/C1=N\OC (stereo unspecified)', '> 128 mg/L'),
  ('CO/N=C1\CN(c2c(F)cc3c(=O)c(C(=O)O)cn(C4CC4)c3c2F)CC1/C(N)=N\OC (stereo unspecified)', '> 128 mg/L'),
  ('CCO/N=C1\CN(c2c(F)cc3c(=O)c(C(=O)O)cn(C4CC4)c3c2F)CC1/C(N)=N\OC (stereo unspecified)', '> 128 mg/L'),
  ('CCO/N=C(/N)C1CN(c2c(F)cc3c(=O)c(C(=O)O)cn(C4CC4)c3c2F)C/C1=N\OC (stereo unspecified)', '> 128 mg/L'),
  ('CCO/N=C(/N)C1CN(c2c(F)cc3c(=O)c(C(=O)O)cn4c3c2OC[C@@H]4C)C/C1=N\OC (stereo partly specified)', '> 128 mg/L'),
  ('CCn1cc(C(=O)O)c(=O)c2cc(F)c(N3C/C(=N\OC)C(/C(N)=N\OC)C3)c(F)c21 (stereo unspecified)', '> 128 mg/L'),
  ('CCn1cc(C(=O)O)c(=O)c2cc(F)c(N3C/C(=N\OC)C(/C(N)=N\O)C3)c(F)c21 (stereo unspecified)', '> 128 mg/L'),
  ('CO/N=C1\CN(c2c(F)cc3c(=O)c(C(=O)O)cn(CCF)c3c2F)CC1/C(N)=N\OC (stereo unspecified)', '> 128 mg/L'),
  ('CCO/N=C(/N)C1CN(c2c(F)cc3c(=O)c(C(=O)O)cn(CCF)c3c2F)C/C1=N\OC (stereo unspecified)', '> 128 mg/L'),
  ('CO/N=C1\CN(c2c(F)cc3c(=O)c(C(=O)O)cn(CCF)c3c2F)CC1/C(N)=N\O (stereo unspecified)', '> 128 mg/L'),
  ('CCO/N=C1\CN(c2c(F)cc3c(=O)c(C(=O)O)cn(C4CC4)c3c2OC)CC1/C(N)=N\OCC (stereo unspecified)', '64 mg/L'),
  ('CCO/N=C1\CN(c2nc3c(cc2F)c(=O)c(C(=O)O)cn3-c2ccc(F)cc2F)CC1/C(N)=N\OCC (stereo unspecified)', '128 mg/L'),
  ('CCO/N=C1\CN(c2c(F)cc3c(=O)c(C(=O)O)cn(CCF)c3c2F)CC1/C(N)=N\OCC (stereo unspecified)', '> 128 mg/L'),
  ('CCO/N=C1\CN(c2nc3c(cc2F)c(=O)c(C(=O)O)cn3C2CC2)CC1/C(N)=N\OC (stereo unspecified)', '> 128 mg/L'),
  ('CCO/N=C1\CN(c2c(F)cc3c(=O)c(C(=O)O)cn4c3c2OC[C@@H]4C)CC1/C(N)=N\OCC (stereo partly specified)', '> 128 mg/L'),
  ('CO/N=C1\CN(c2c(F)cc3c(=O)c(C(=O)O)cn4c3c2OC[C@@H]4C)CC1/C(N)=N\OC (stereo partly specified)', '128 mg/L'),
  ('CO/N=C1\CN(c2nc3c(cc2F)c(=O)c(C(=O)O)cn3C2CC2)CC1/C(N)=N\OC (stereo unspecified)', '> 128 mg/L'),
  ('CO/N=C1\CN(c2nc3c(cc2F)c(=O)c(C(=O)O)cn3-c2ccc(F)cc2F)CC1/C(N)=N\OC (stereo unspecified)', '> 128 mg/L'),
  ('CCO/N=C1\CN(c2c(F)cc3c(=O)c(C(=O)O)cn(CCF)c3c2F)CC1/C(N)=N\O (stereo unspecified)', '> 128 mg/L');

---

- System: Staphylococcus epidermidis
- Protocol Description: Antibacterial activity against methicillin-resistant Staphylococcus epidermidis 09-3 after 18 to 24 hrs by twofold serial dilution method
- Type: functional
Test Readout: MIC (µg/mL)

INSERT INTO measurements (molecule, uom, endpoint_result) VALUES
  ('CCO/N=C1\CN(c2c(F)cc3c(=O)c(C(=O)O)cn(C4CC4)c3c2OC)CC1/C(N)=N\OC (centres undefined)', 'µg/mL', 0.125),
  ('CO/N=C1\CN(c2c(F)cc3c(=O)c(C(=O)O)cn(C4CC4)c3c2OC)CC1/C(N)=N\O (centres undefined)', 'µg/mL', 0.25),
  ('CO/N=C1\CN(c2c(F)cc3c(=O)c(C(=O)O)cn4c3c2OC[C@@H]4C)CC1/C(N)=N\OC (some centres undefined)', 'µg/mL', 0.25),
  ('CCO/N=C(/N)C1CN(c2c(F)cc3c(=O)c(C(=O)O)cn(C4CC4)c3c2F)C/C1=N\OC (centres undefined)', 'µg/mL', 0.06);

---

- Tested on: Staphylococcus epidermidis
- Protocol Description: Antibacterial activity against methicillin-resistant Staphylococcus epidermidis 09-3 after 18 to 24 hrs by twofold serial dilution method
- Assay type: functional
Each record here notes measured MIC.
Test Readout: MIC (µg/mL)

INSERT INTO measurements (molecule, target_of_assay, test_readout, endpoint_result) VALUES
  ('CCO/N=C1\CN(c2c(F)cc3c(=O)c(C(=O)O)cn4c3c2OC[C@@H]4C)CC1/C(N)=N\OC (stereo partly drawn)', 'Staphylococcus epidermidis', 'MIC', 0.125),
  ('CCO/N=C1\CN(c2nc3c(cc2F)c(=O)c(C(=O)O)cn3-c2ccc(F)cc2F)CC1/C(N)=N\OCC (stereo not drawn)', 'Staphylococcus epidermidis', 'MIC', 0.06),
  ('CCO/N=C1\CN(c2c(F)cc3c(=O)c(C(=O)O)cn(C4CC4)c3c2F)CC1/C(N)=N\OC (stereo not drawn)', 'Staphylococcus epidermidis', 'MIC', 0.125),
  ('CCO/N=C1\CN(c2c(F)cc3c(=O)c(C(=O)O)cn(C4CC4)c3c2OC(F)F)CC1/C(N)=N\OC (stereo not drawn)', 'Staphylococcus epidermidis', 'MIC', 0.25),
  ('CO/N=C1\CN(c2c(F)cc3c(=O)c(C(=O)O)cn(C4CC4)c3c2F)CC1/C(N)=N\OC (stereo not drawn)', 'Staphylococcus epidermidis', 'MIC', 0.25),
  ('CCn1cc(C(=O)O)c(=O)c2cc(F)c(N3C/C(=N\OC)C(/C(N)=N\O)C3)c(F)c21 (stereo not drawn)', 'Staphylococcus epidermidis', 'MIC', 0.25),
  ('CCO/N=C(/N)C1CN(c2c(F)cc3c(=O)c(C(=O)O)cn(CC)c3c2F)C/C1=N\OC (stereo not drawn)', 'Staphylococcus epidermidis', 'MIC', 0.125),
  ('CCO/N=C(/N)C1CN(c2c(F)cc3c(=O)c(C(=O)O)cn(CCF)c3c2F)C/C1=N\OC (stereo not drawn)', 'Staphylococcus epidermidis', 'MIC', 0.125);

Hey, just so you know, these numbers are from ChEMBL document CHEMBL1287651.
